measurement-description: HSF-1 activators, primary screen, NIH3T3-HGL cells, MG132 stress, luminescence, single point (AID 504408);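 further: 0% = median of the neutral control wells and 100% = twice that signal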
conditions: NIH3T3-HGL HSF-1 luciferase reporter, MG132, 8 h; at 9 µM; hits give high values; 100% = twice DMSO control signal
About 5,200 (1.7%) of roughly 300,000 compounds were called active. Many of the other results were omitted from the sample, so actives are more common in it than they were.
quantity-name: activation

INSERT INTO measurements (molecule, quantity_name, endpoint_result) VALUES
  ('CC(Sc1nn(-c2ccc(Cl)cc2)c(=S)s1)C(=O)NCC1CCCO1 (centres undefined)', 'activation', '3.22% (inactive)'),
  ('COc1ccc(C(=O)OCC(=O)c2ccc(Cl)s2)c(OC)c1OC', 'activation', '3.84% (inactive)'),
  ('COc1ccccc1-c1cc(C(=O)NCCCn2ccnc2)no1', 'activation', '-0.494% (inactive)'),
  ('CCCCn1c(N)c(N(CC(C)C)C(=O)c2cccc(S(=O)(=O)N3CCN(C(C)=O)CC3)c2)c(=O)[nH]c1=O', 'activation', '-4.85% (inactive)'),
  ('CCc1cccc(C)c1NS(=O)(=O)c1cc(Br)cnc1N', 'activation', '0.695% (inactive)'),
  ('CC1(C)O[C@@H]2CC3C4C[C@H](F)C5=CC(=O)C=CC5(C)C4C(O)CC3(C)[C@]2(C(=O)CO)O1 (some centres undefined)', 'activation', '-43.8% (inactive)'),
  ('O=C(NCC(c1ccco1)N1CCc2ccccc2C1)c1ccccc1Cl (centres undefined)', 'activation', '6.39% (inactive)'),
  ('COc1ccc(NC(=O)CN(C)C(=O)/C=C/c2cn(Cc3ccccc3)nc2-c2cccnc2)cc1', 'activation', '1.78% (inactive)'),
  ('COc1ccc(C2CC(c3cccs3)=NN2c2nc(C)c(C(C)=O)s2)cc1OC (centres undefined)', 'activation', '149% (active)'),
  ('c1ccc(CN=C2Nc3ccccc3CS2)nc1', 'activation', '58% (active)'),
  ('COc1ccc(-c2cc(C(=O)N(C)CC(=O)Nc3ccccc3Cl)c3ccccc3n2)cc1OC', 'activation', '-23.1% (inactive)'),
  ('COc1ccc(NC(=O)CCC(=O)N2CCN(S(=O)(=O)c3ccc(C)cc3)CC2)c(OC)c1', 'activation', '-9.72% (inactive)'),
  ('COc1ccc(-c2cc(C(=O)NCCCn3ccnc3)no2)cc1', 'activation', '-2.3% (inactive)'),
  ('COc1ccc(C2=NN(C(=O)CCC(=O)O)C(c3cccs3)C2)cc1OC (centres undefined)', 'activation', '-7.93% (inactive)'),
  ('COc1ccc(C2CC(c3cccs3)=NN2c2ccc(F)cc2)cc1OC (centres undefined)', 'activation', '22.9% (inactive)'),
  ('Cc1ccsc1C(=O)N/N=C/c1ccc([N+](=O)[O-])cc1', 'activation', '59% (active)'),
  ('CS(=O)(=O)c1ccc(Cl)c(NC(=O)COC(=O)c2ncc(Cl)c(Cl)c2Cl)c1', 'activation', '2.63% (inactive)'),
  ('O=C(NC1CCCCC1)c1cc(C2CC2)on1', 'activation', '24.7% (inactive)'),
  ('CCN(CC(=O)Nc1c(F)cccc1F)C(=O)c1ccc(Sc2nncn2C)c([N+](=O)[O-])c1', 'activation', '-3.26% (inactive)'),
  ('CC(=O)Nc1ccc(N2C(=O)C3C4CC(=O)C(c5ccccc54)C3C2=O)cc1 (centres undefined)', 'activation', '63.1% (active)'),
  ('CCOC(=O)COc1ccc([N+](=O)[O-])cc1', 'activation', '9.19% (inactive)'),
  ('Oc1ccccc1CNc1ncc(Br)cc1Br', 'activation', '114% (active)'),
  ('Cc1cc(C)cc(OCC(=O)O/N=C(\N)Cc2ccc([N+](=O)[O-])cc2)c1', 'activation', '59.9% (active)'),
  ('O=C(NC1CCCC1)c1cc(-c2ccccc2)on1', 'activation', '61.2% (active)'),
  ('CN1CCN(C2Cc3ccc(Cl)cc3Sc3ccc(F)cc32)CC1 (centres undefined)', 'activation', '-3.39% (inactive)'),
  ('COC(=O)c1sccc1NC(=O)COc1ccc(Cl)cc1', 'activation', '65.1% (active)'),
  ('CC(OC(=O)c1ccc(S(=O)(=O)N2CCOCC2)cc1)c1ccccc1 (centres undefined)', 'activation', '13.9% (inactive)'),
  ('COc1ccc(C2CC(c3cccs3)=NN2C(=O)CCC(=O)O)cc1OC (centres undefined)', 'activation', '-17.8% (inactive)'),
  ('N#CCCN(C(=O)COC(=O)C1CCN(c2ccc(C(F)(F)F)cn2)CC1)c1ccc(F)cc1', 'activation', '9.78% (inactive)'),
  ('CCOc1ccc(NC(=S)N2CCCCCC2)cc1', 'activation', '65.8% (active)'),
  ('CCOC(=O)c1ccc(NC(=S)N2CCCC2)cc1', 'activation', '17.9% (inactive)'),
  ('Cc1nc2ccccc2cc1C(=O)N/N=C/c1ccc([N+](=O)[O-])cc1', 'activation', '10.7% (inactive)'),
  ('Cc1cc(O)c(Sc2ccccc2)c(=O)o1', 'activation', '-2.42% (inactive)'),
  ('COCCN(C(=O)COC(=O)Cc1cccc(OC)c1)c1c(N)n(Cc2ccccc2)c(=O)[nH]c1=O', 'activation', '2.54% (inactive)'),
  ('COc1ccc(C2CC(c3cccs3)=NN2c2ccccc2)cc1 (centres undefined)', 'activation', '67.4% (active)'),
  ('Cc1cccc(C)c1OCC(=O)NC(Cc1c[nH]c2ccccc12)C(=O)O (centres undefined)', 'activation', '0.58% (inactive)'),
  ('COc1ccccc1N1N=C(c2cccs2)CC1c1ccccc1 (centres undefined)', 'activation', '9.62% (inactive)'),
  ('O=C(NCc1ccccc1Cl)C(=O)NCC1CCCN1S(=O)(=O)c1cccs1 (centres undefined)', 'activation', '4.38% (inactive)'),
  ('COc1ccc(C2=NN(C(C)=O)C(c3ccccc3)C2)cc1 (centres undefined)', 'activation', '21.6% (inactive)'),
  ('CCC(C)c1ccccc1N1CC(C(=O)N2CCN(S(=O)(=O)c3ccc(F)cc3)CC2)CC1=O (centres undefined)', 'activation', '7.61% (inactive)'),
  ('COc1ccc(C2=NOC(Cn3nc(C(=O)NCc4ccc5c(c4)OCO5)cc3-c3ccccc3)C2)cc1 (centres undefined)', 'activation', '7.07% (inactive)'),
  ('Cc1ccc(C(=O)Nc2nc3ccc(Cl)cc3s2)o1', 'activation', '44.3% (inactive)'),
  ('O=C(COc1coc(CN2CCN(c3ccccc3)CC2)cc1=O)N1CCc2ccccc21', 'activation', '1.05% (inactive)'),
  ('O=[N+]([O-])c1ncc(Br)cc1Nc1ccccc1', 'activation', '-4.85% (inactive)');

Source: PubChem BioAssay AID504408
